tested on: liver; experiment: In vivo delivery of luciferase mRNA LNPs, luminescence in liver; conditions: LNP 50/10/38.5/1.5 mol % ionizable lipid/DSPC/chol/PEG-DMG, N/P=6, luciferase mRNA 1 mg/kg intravenous, CD-1 mice, 4 hours post-injection
RECORDED ENDPOINT: luminescence intensity per mg liver compared with the MC3 benchmark (lipid 1)

| COMPOUND | READING |
| --- | --- |
| CCCCCCCCC(CCCCCC)CC(=O)N(C)CC(=O)OCCCCCC(CCCCCOC(=O)C(CCCCCC)CCCCCCCC)N(C)CCCCO (stereo not drawn) | higher |
| CCCCCCCCC(CCCCCC)C(=O)N(C)CC(=O)OCCCCCC(CCCCCOC(=O)CN(C)C(=O)C(CCCCCC)CCCCCCCC)OC(=O)CCCC(=O)OCCCN(C)C (stereo not drawn) | higher |
| CCCCCCCCC(CCCCCC)C(=O)OCCCCCC(CCCCCOC(=O)CN(C)C(=O)C(CCCCCC)CCCCCCCC)OC(=O)CCCN(C)C (stereo not drawn) | higher |
